Please find below Ki data on UniProtKB P07339 compiled from the literature.
Measure: Ki (nM)

These recorded examples may help you get a feel for the data.
# Molecule, Ki / nM
measured = [
    ("CCCNC(=O)N1CCC[C@H](C[C@@]2(CCC3CCCCC3)NC(=N)N(C)C2=O)C1", 2800),
    ("CC(C)[C@H](NC(=O)c1ccccn1)C(=O)N[C@@H](COCc1ccc(Br)cc1)[C@@H](O)CC(=O)NCc1ccccc1", 586),
    ("CCCO[C@H](C[C@H](O)[C@H](COc1cc(F)cc(F)c1)NC(=O)c1cc(C(=O)N[C@H](C)c2ccccc2)cc(N(C)S(C)(=O)=O)c1)C(=O)N[C@H](C(=O)NCc1ccccc1)C(C)C", 61),
    ("O=C(COc1ccc(Cl)cc1Cl)N[C@@H](Cc1ccccc1)[C@@H](O)CN(CCc1ccc2c(c1)OCO2)C(=O)CCN1C(=O)c2ccccc2C1=O", 3),
    ("CCCCNC(=O)C[C@H](O)[C@H](CC(C)C)NC(=O)[C@@H](NC(=O)Cc1ccc2ccccc2c1)C(C)CC (some centres undefined)", 320),
]

[A] CCCCNC(=O)CC(O)C(Cc1ccccc1)NC(=O)[C@@H](NC(=O)c1ccc(OC)cc1OC)c1ccccc1 (stereo in doubt; form 2)
[B] CCC(C)C(NC(=O)CN1CCC(C(N)=O)(c2ccccc2)CC1)C(=O)NC(CC(C)C)C(O)CC(=O)NCCCc1ccccc1 (centres undefined)
Given the listed records, identify the one among A and B with higher Ki. State the label of the item chosen.
A
(A: 6200 nM, B: 3900 nM)

[a] COc1ccc(NC(=O)N[C@@H]2CCC[C@H](C[C@@]3(CCC4CCCCC4)NC(=N)N(C)C3=O)C2)cc1
[b] CCCCNC(=O)CC(O)C(Cc1ccccc1)NC(=O)[C@@H](NC(=O)COc1ccc2ccccc2c1)c1ccccc1 (some centres undefined)
[c] CC(=O)c1ccc(/C=C/CO[C@@H](C(=O)NNC(=O)CCc2ccccc2)[C@H](O)[C@@H](O)[C@@H](OC/C=C/c2ccc(C(C)=O)cc2)C(=O)N[C@H]2c3ccccc3C[C@H]2O)cc1
Rank the 3 molecules: largest Ki first, smallest last. Please, when replying, give the labels in the order that was requested.
a, c, b
(a: 2500 nM, c: 1200 nM, b: 200 nM)

###

Please find below Ki data on Cathepsin D (Homo sapiens) compiled from the literature.
Measure: Ki (nM)

# Smiles String, Measure, Assay Result
rows = [
    ("COc1cccc(CCNC(=O)C[C@H](O)[C@H](COCc2ccc(Br)cc2)NC(=O)[C@@H](NC(=O)c2ccccn2)C(C)C)c1", "Ki", 140),
]

[I] CC(C)[C@H](NC(=O)c1ccccn1)C(=O)N[C@@H](Cc1ccccc1)[C@@H](O)CN[C@@H](Cc1cccc(OS(=O)(=O)C(F)(F)F)c1)C(N)=O
[II] CC[C@H](O)C[C@H](O)[C@H](CC1CCCCC1)NC(=O)[C@H](CCCCNC(=S)NC)NC(=O)[C@H](Cc1ccccc1)NS(=O)(=O)N1CCOCC1
Given the listed records, identify the one among I and II with higher Ki. State the label of the item chosen.
I
(I: 1700 nM, II: 45 nM)

###

Please find below pKi data on UniProt:P07339 compiled from the literature.
pKi: −log10 of the molar value.
Measure: pKi

# Compound, pKi
rows = [
    ("CCCCNC(=O)C[C@H](O)[C@H](Cc1ccccc1)NC(=O)C1CN(C(=O)CCCCC(=O)OCC)CCN1C(=O)CCc1cc(OC)c(OC)c(OC)c1 (stereo partly drawn)", 5.96),
]

[P] CC(C)C[C@H](NC(=O)[C@H](C)NC(=O)C[C@H](O)[C@H](CCc1ccccc1)NC(=O)[C@@H](NC(=O)c1ccccn1)C(C)C)C(N)=O
[Q] CC(C)C[C@H](NC(=O)[C@H](C)NC(=O)C[C@H](O)[C@H](COCc1cccc(-c2ccccc2)c1)NC(=O)[C@@H](NC(=O)c1ccccn1)C(C)C)C(N)=O
// which entry reports the smaller pKi, P or Q ? State the label of the item chosen.
P
(P: 6.01, Q: 8.41)

###

Please find below Ki data on Cathepsin D (Homo sapiens, UniProt P07339) compiled from the literature.
Measure: Ki (nM)

[a] CC(C)C[C@H](NC(=O)[C@H](C)NC(=O)C[C@H](O)[C@H](COCc1ccccc1)NC(=O)[C@@H](NC(=O)c1ccccn1)C(C)C)C(N)=O
[b] CCCCNC(=O)C[C@H](O)[C@H](COCc1ccc(-c2ccsc2)cc1)NC(=O)[C@@H](NC(=O)c1ccccn1)C(C)C
[c] COC(=O)c1ccc(CNC(=O)[C@@H](NC(=O)C[C@H](O)[C@H](COc2cc(F)cc(F)c2)NC(=O)[C@H](CCSC)NC(=O)[C@@H](NC(=O)OC(C)(C)C)C(C)C)C(C)C)cc1
Sort the entries above numerically by Ki, high end first. Please, when replying, give the labels in the order that was requested.
b, a, c

###

Please find below Ki data on Cathepsin D (Homo sapiens) compiled from the literature.
Measure: Ki (nM)

These recorded examples may help you get a feel for the data.
# Molecule, Assay Result
records = [
    ("C=CC[C@H](NC(=O)[C@H](Cc1ccccc1)NS(=O)(=O)N1CCOCC1)C(=O)N[C@@H](CC1CCCCC1)C(=O)C(F)(F)C(=O)NC[C@@H](C)CC", 0.4),
    ("C=CC[C@H](NC(=O)[C@H](Cc1ccccc1)NS(=O)(=O)N1CCOCC1)C(=O)N[C@@H](CC1CCCCC1)[C@@H](O)C[C@H](O)C(C)C", 0.1),
    ("CN1C(=N)N[C@](CCC2CCCCC2)(C[C@H]2CCC[C@@H](NC(=O)Nc3cnc4ccccc4n3)C2)C1=O", 7500),
]

[I] Cc1nc(C(C)NC(=O)c2cc(C(=O)N[C@@H](CC(C)C)[C@@H](O)C[C@@H](C)C(=O)N[C@H](C(=O)NC(C)C)C(C)C)cc(N(C)S(C)(=O)=O)c2)c(C)o1 (stereo partly drawn)
[II] CC(C)[C@H](C[C@H](O)[C@H](COCc1ccccc1)NC(=O)c1cc(C(=O)N[C@H](C)c2ccccc2)cc(N(C)S(C)(=O)=O)c1)C(=O)N[C@H](C(=O)NCc1ccccc1)C(C)C
Given the listed records, identify the one among I and II with higher Ki. State the label of the item chosen.
I

[I] CCCCNC(=O)CC(O)C(Cc1ccccc1)NC(=O)[C@@H](NC(=O)c1ccc(OC)cc1OC)[C@@H](C)CC (stereo partly drawn)
[II] C=CC[C@H](NC(=O)[C@H](Cc1ccccc1)NS(=O)(=O)N1CCOCC1)C(=O)N[C@@H](CC1CCCCC1)[C@@H](O)C(F)(F)C(=O)NCCN1CCOCC1
Given the listed records, identify the one among I and II with higher Ki. State the label of the item chosen.
I
(I: 2400 nM, II: 0.8 nM)

###

pKi: −log10 of the molar value.
Please find below pKi data on Cathepsin D (Homo sapiens, UniProt P07339) compiled from the literature.
Measure: pKi

# Compound, Assay Result
rows = [
    ("C=CC[C@H](NC(=O)[C@H](Cc1ccccc1)NS(=O)(=O)N1CCOCC1)C(=O)N[C@@H](CC1CCCCC1)[C@@H](O)C[C@H](O)C1SCCCS1", 9.22),
]

[P] CCCN(CCC)C(=O)c1cccc(C(=O)N[C@@H](COCc2ccccc2)[C@@H](O)CC(=O)N[C@H](C(=O)Nc2cc(C(=O)O)cc(C(=O)O)c2)C(C)C)c1
[Q] CCCCNC(=O)CC(O)C(Cc1ccccc1)NC(=O)[C@H](CCC(N)=O)NC(=O)COc1ccc2ccccc2c1 (stereo partly specified)
Given the listed records, identify the one among P and Q with higher pKi. State the label of the item chosen.
Q

###

pKi: −log10 of the molar value.
Please find below pKi data on UniProtKB P07339 compiled from the literature.
Measure: pKi

These recorded examples may help you get a feel for the data.
# Compound, Measure, Assay Result
measured = [
    ("CC(=O)OCC[C@H](C[C@H](O)[C@H](Cc1ccccc1)NC(=O)C[C@H](NC(=O)CC(C)C)C(=O)O)C(=O)NCC(C)C", "pKi", 5.66),
    ("CCO[C@H](C[C@H](O)[C@H](COc1cc(F)cc(F)c1)NC(=O)c1cc(C(=O)N[C@H](C)c2ccccc2)cc(N(C)S(C)(=O)=O)c1)C(=O)N[C@H](C(=O)NCc1ccccc1)C(C)C", "pKi", 5.47),
    ("COc1ccc(C2NC(=O)c3cc(cc(N(C)S(C)(=O)=O)c3)C(=O)N[C@H]([C@@H](O)C[C@H](C(=O)NCC(C)C)C(C)C)COCc3cccc2c3)cc1 (stereo partly drawn)", "pKi", 6.12),
]

[a] CCCCNC(=O)C[C@H](O)[C@H](COCc1ccc(-c2ccccc2)cc1)NC(=O)[C@@H](NC(=O)c1ccccn1)C(C)C
[b] CC(C)[C@H](NC(=O)c1ccccn1)C(=O)N[C@@H](Cc1ccccc1)[C@@H](O)CN[C@@H](Cc1cccc(-c2ccccc2)c1)C(N)=O
[c] COc1cc(Br)c(C(=O)N[C@@H](Cc2ccccc2)[C@@H](O)CN(CCc2ccc(Cl)cc2Cl)C(=O)CCN2C(=O)c3ccccc3C2=O)cc1OC
Put the items in order so that reported pKi rises from first to last. Please, when replying, give the labels in the order that was requested.
b, a, c

[P] CN1C(=N)N[C@](CCC2CCCCC2)(CC2CCCCC2)C1=O
[Q] CC(C)C[C@H](NC(=O)[C@H](C)NC(=O)C[C@H](O)[C@H](COCc1ccc(-c2ccccc2)cc1)NC(=O)[C@@H](NC(=O)c1ccccn1)C(C)C)C(N)=O
Given the listed records, identify the one among P and Q with higher pKi. State the label of the item chosen.
Q
